The measurements presented in this section are drawn from PubChem BioAssay.

- testMethodNotes: probe aWnt5a binding to arrayed compounds – biochemical, biotinylated probe, 635/667 nm fluorescence, primary screen (AID 1113);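 further: score merges 667 nm fluorescence intensity with signal-to-noise per printed feature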
- conditionDetails: small-molecule microarray, higher = more signal
Param threshold (0.004) applies to composite z-score; output 1 when value >= threshold, 0 when value < threshold.

Example results:
CC(C)(C)OC(=O)CC[C@]1(C(=O)N2CCCCC2)N=C(c2ccc(OCCCO)cc2)O[C@H]1c1ccccc1CN=[N+]=[N-]; 1
CC(=O)NCCCC[C@@H]1NC(=O)[C@H]2C[C@@H](C(=O)NCCCCCN)[C@@H](c3cccc(OCCO)c3)N2C1=O; 0
NC(=O)NCC#Cc1ccc2c(c1)[C@]1(C(=O)N2)[C@H](c2ccc(OCCO)cc2)N2[C@H](c3ccccc3)[C@H](c3ccccc3)OC(=O)[C@H]2[C@@H]1C(=O)N1CCN(c2ncccn2)CC1; 0
C=CC[C@@]1(C(=O)NCC(O)CO)N=C(c2ccc(OCCCO)cc2)O[C@@H]1c1ccccc1 (some centres not stated); 1
CC(C)NC(=O)[C@@H]1c2ccccc2C(=O)N(Cc2cc(C(F)(F)F)cc(C(F)(F)F)c2)[C@H]1c1ccc(CO)cc1; 0

Lookup: I'd appreciate it if you could say whether `COC(=O)[C@@]1(Cc2ccc(OC)cc2)[C@H]2c3cc(C(=O)N4CCCC4)n(CCF)c3C[C@H]2CN1C(=O)c1ccccc1` has composite z-score at least equal to 0.004.
Found: 1

Lookup: Could you tell me if the measured composite z-score of `COCC(=C=CC[C@@H](O)c1ccccc1OCCO)C[C@@H](O)c1ccccn1` reaches 0.004 or more?
Found: 0

---

- testedSystem: Dihydroorotate dehydrogenase (quinone), mitochondrial (Plasmodium falciparum (isolate 3D7)) (UniProt Q08210)
- Sequence (Q08210 whole entry, looked up): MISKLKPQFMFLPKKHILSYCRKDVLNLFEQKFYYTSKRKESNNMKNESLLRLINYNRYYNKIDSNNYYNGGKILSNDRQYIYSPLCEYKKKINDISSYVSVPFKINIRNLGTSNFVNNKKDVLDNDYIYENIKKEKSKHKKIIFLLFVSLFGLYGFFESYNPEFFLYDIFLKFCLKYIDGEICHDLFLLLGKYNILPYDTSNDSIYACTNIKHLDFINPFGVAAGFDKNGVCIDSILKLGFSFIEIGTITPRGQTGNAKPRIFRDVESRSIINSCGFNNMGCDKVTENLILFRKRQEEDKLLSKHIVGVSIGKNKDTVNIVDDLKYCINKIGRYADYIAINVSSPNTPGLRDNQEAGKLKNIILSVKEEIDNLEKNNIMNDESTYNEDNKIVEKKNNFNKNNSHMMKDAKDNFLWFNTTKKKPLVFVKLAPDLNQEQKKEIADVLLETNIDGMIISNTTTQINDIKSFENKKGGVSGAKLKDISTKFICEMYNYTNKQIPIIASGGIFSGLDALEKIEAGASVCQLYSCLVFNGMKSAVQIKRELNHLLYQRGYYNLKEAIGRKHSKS
- testMethodNotes: inhibition of P. falciparum DHODH – biochemical, C-terminal His tag, absorbance 600 nm, primary screen (AID 1175);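 further: recombinant parasite enzyme with a five histidine tag at its C terminus; test concentration not given here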
- conditionDetails: PfDHODH enzyme, DCIP absorbance 600 nm; higher = more signal, called active from +8 up or from −8 down
experimentalReadout: composite z-score
Enter a number only.

Record excerpt, results attached:
CN1C(=O)C2C=CC(C(O)c3cccc4ccccc34)N(NC(=O)OC(C)(C)C)C2C1=O (configuration not stated); -0.878
CCCNC(=O)[C@@]1(Sc2ccc(C)cc2)CC(=O)N(Cc2ccccc2)[C@@H]1c1ccc(CO)cc1I; -11.5
COc1ccc([Si](C)(C)[C@@H]2[C@@H](CCO)O[C@]3(C(=O)N(Cc4ccccc4)c4ccc(N5C(=O)COc6ccccc65)cc43)[C@H]2C)cc1; -0.0636
CC(C)c1ccc(NN2C(C(O)c3cccs3)C=CC3C(=O)N(c4ccccc4)C(=O)C32)cc1 (configuration not stated); 0.355

According to the records, this molecule `COCCOC(=O)N1C(=O)[C@@]2(c3cc(C#CCNC(N)=O)ccc31)[C@H](C(=O)N1CCCCCCC1)[C@H]1C(=O)O[C@H](c3ccccc3)[C@H](c3ccccc3)N1[C@@H]2c1ccc(OCCO)cc1` displays composite z-score of -0.0134

Lab note: measured composite z-score of `C=CCNC(=O)[C@@H]1[C@H]2C(=O)O[C@H](c3ccccc3)[C@H](c3ccccc3)N2[C@H](c2ccc(O)cc2)[C@@]12C(=O)Nc1ccc(C#CCCO)cc12` was -0.489

Data point: `Cc1ccc(F)cc1S(=O)(=O)N[C@@H]1CCN(C(=O)c2ccc(OC(C)C)cc2)C1` ; composite z-score = -0.431
